assay-system: human NPS receptor variants (NPS Ile107 and Asn107) (Homo sapiens, UniProt Q6W5P4)
Sequence (Q6W5P4 whole entry N107I, form open): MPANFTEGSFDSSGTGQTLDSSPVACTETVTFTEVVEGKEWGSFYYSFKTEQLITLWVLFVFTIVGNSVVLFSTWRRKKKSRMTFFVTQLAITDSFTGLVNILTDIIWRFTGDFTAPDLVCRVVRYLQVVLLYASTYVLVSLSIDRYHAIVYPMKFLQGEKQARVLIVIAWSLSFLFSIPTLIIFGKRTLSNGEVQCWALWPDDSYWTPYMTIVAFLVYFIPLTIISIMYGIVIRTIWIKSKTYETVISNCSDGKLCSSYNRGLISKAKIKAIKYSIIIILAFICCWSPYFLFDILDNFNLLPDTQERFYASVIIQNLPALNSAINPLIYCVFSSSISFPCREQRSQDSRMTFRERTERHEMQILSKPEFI
test-protocol: Functional determination of EC50 by calcium mobilization in RD-HGA16 CHO cells overexpressing the NPS receptor
details: FlexStation, mean of at least three independent experiments, receptor variant not given
Excerpt: Functional Determinations of EC50: Identification of functional agonists at the NPS receptor was done utilizing RD-HGA16 cells (Molecular Devices), a Chinese Hamster Ovary cell line stably expressing the promiscuous Gq-protein Gα16. RD-HGA16 cells were engineered to stably overexpress the NPS receptor. Two individual cell lines were created that stably express one of two human NPS receptor variants (NPS Ile107 and Asn107). […]
Overview of reported EC50 across a group of compounds:
Phrase the answer as number then unit, nothing more needed.

Example entries begin here.
NCCCC[C@H](NC(=O)C(CCc1ccccc1)Cc1ccccc1)C(=O)NC1C2CCC(CC2)C1C(N)=O (stereo partly drawn) | 91 nM
NC(=O)C1C2CCC(CC2)C1NC(=O)CNC(=O)C(CCc1ccccc1)Cc1ccccc1 (stereo not drawn) | 93 nM

Could you now look at the following compound, please?
Prompt: Entry NC(=O)[C@@H]1CCCC[C@H]1NC(=O)CNC(=O)/C(=C/c1ccccc1)CCc1ccccc1 (relative stereo) : reported EC50 = ?
Response: 213 nM

###

assay-system: human NPS receptor variants (NPS Ile107 and Asn107) (Homo sapiens, UniProt Q6W5P4)
test-protocol: Functional determination of EC50 by calcium mobilization in RD-HGA16 CHO cells overexpressing the NPS receptor
details: FlexStation, mean of at least three independent experiments, receptor variant not given
Overview of reported EC50 across a group of compounds:
Phrase the answer as number then unit, nothing more needed.

NC(=O)[C@H]1CCCC[C@@H]1NC(=O)CNC(=O)C(Cc1ccccc1)c1ccccc1 (stereo partly drawn) [Compound R06039-657] | 901 nM

Prompt: Entry NC(=O)[C@H]1CCCC[C@@H]1NC(=O)CNC(=O)C(Cc1ccccc1)Cc1ccccc1 (racemic) [Compound R06039-656] : reported EC50 = ?
Response: 1020 nM

Prompt: Entry NC(=O)[C@@H]1CCCC[C@H]1NC(=O)CNC(=O)[C@H](Cc1ccccc1)OCc1ccccc1 [Compound R06039-641] : reported EC50 = ?
Response: 169 nM
